target_or_system: UniProtKB Q8WUI4
Sequence (Q8WUI4 whole entry): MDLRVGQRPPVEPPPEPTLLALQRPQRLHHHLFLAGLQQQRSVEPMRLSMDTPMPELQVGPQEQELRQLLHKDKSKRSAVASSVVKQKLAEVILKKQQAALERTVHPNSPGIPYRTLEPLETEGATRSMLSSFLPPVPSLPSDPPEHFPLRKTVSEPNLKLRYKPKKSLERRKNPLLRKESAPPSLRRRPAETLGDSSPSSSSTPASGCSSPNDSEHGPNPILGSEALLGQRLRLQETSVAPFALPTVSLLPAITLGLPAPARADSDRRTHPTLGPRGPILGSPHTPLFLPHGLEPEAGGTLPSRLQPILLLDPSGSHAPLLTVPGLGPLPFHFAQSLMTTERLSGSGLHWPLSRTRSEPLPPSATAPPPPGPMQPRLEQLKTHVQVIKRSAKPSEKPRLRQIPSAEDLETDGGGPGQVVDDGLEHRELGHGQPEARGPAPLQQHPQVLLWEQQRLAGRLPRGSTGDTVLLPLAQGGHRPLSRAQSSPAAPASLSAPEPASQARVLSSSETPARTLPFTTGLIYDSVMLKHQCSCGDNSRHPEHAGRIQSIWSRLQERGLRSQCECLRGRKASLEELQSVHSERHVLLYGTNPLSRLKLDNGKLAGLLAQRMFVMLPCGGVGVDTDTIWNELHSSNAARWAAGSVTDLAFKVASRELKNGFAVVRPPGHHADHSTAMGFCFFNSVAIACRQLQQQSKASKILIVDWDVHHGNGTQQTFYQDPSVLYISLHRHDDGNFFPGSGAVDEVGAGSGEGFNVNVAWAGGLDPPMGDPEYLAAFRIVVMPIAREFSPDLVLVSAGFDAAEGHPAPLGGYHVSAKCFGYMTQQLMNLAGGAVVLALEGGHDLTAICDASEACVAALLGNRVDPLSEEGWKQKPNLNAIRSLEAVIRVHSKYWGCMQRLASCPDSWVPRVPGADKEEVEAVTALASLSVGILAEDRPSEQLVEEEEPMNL
pIC50: −log10 of the molar value.
observation_type: pIC50

query: For CC(=O)Nc1ccc(C(=O)Nc2ccc(F)cc2N)cc1 [US12128018, Compound I-1] , what is its reported pIC50?
result: < 4.52

---

target_or_system: Histone deacetylase 4 (Homo sapiens)
Sequence (P56524 whole entry): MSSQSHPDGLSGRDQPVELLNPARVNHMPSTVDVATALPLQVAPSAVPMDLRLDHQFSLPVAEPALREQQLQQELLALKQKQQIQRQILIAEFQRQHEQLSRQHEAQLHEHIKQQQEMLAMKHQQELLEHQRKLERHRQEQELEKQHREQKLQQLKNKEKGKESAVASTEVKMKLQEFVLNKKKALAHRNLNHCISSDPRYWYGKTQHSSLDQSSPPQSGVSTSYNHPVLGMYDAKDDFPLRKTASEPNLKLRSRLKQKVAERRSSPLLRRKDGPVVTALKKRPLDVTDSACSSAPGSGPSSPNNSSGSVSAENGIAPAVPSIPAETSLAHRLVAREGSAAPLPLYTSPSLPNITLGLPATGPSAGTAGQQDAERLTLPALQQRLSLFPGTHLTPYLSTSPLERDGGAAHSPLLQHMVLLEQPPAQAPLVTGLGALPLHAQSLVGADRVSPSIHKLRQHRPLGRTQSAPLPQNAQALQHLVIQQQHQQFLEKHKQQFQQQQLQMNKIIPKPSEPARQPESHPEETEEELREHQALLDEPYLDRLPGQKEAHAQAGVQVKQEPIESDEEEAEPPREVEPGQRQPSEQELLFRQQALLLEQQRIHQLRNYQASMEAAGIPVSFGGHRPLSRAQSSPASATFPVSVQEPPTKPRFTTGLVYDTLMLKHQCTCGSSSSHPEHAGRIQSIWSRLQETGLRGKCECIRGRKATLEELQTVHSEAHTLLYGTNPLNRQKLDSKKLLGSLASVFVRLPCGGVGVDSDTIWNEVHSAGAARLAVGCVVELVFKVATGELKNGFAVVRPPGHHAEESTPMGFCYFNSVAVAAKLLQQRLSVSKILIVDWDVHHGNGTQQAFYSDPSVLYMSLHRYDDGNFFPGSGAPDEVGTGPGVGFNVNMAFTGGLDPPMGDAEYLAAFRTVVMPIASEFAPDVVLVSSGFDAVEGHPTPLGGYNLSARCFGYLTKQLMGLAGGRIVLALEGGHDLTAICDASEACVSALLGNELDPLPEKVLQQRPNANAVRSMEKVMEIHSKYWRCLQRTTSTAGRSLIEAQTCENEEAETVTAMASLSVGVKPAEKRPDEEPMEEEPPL
observation_type: IC50

query: For CC(=O)Nc1ccc(C(=O)Nc2ccc(F)cc2N)cc1 [US12128018, Compound I-1] , what is its reported IC50?
result: > 30 µM
